Tested on: PEG-3
Test: Peg3 promoter luciferase inhibitors, potency, dose response, cell-based, HeLa, CREF/GAPDH counter-screen panel (AID 624167)
Settings: HeLa PEG-Prom luciferase reporter, overnight, CREF/GAPDH counter-screens, run 1, dose range 1, individual replicate IC50 per panel
Consider the following compounds; for each one, report its log10 of IC50.
Form field - Quantity: IC50; Unit: µM; Scale: log10

RECORD_SMILES: O=Cc1cn(Cc2ccc(Br)cc2)c2ccccc12
QUANTITATIVE_RESULT: 1.64

RECORD_SMILES: CC1=NN(c2cccc(C(=O)O)c2)C(=O)/C1=C\C=C/c1ccccc1
QUANTITATIVE_RESULT: 1.25

RECORD_SMILES: Cc1ccc(C)c(S(=O)(=O)N2CCN(c3ncnc4sccc34)CC2)c1
QUANTITATIVE_RESULT: 0.41

RECORD_SMILES: CCN1CCN(Cc2ccc(NC(=O)c3cc(NC(=O)c4ccno4)cc(OC)c3)cc2C(F)(F)F)CC1
QUANTITATIVE_RESULT: 1.61

RECORD_SMILES: Cc1ccc2cccc(OCC(=O)Nc3cccc(S(=O)(=O)N4CCCC4)c3)c2n1
QUANTITATIVE_RESULT: 1.35

For each listed entry, give its log10 of IC50.
1. COc1cc(SC)ccc1C(=O)Nc1nc2ccccc2[nH]1
2. O=C(CCn1cnc(-c2ccccc2)c1-c1ccccc1)N/N=C/c1ccccc1O
3. O=C(O)c1ccc(N/N=C/c2ccc(OC(=O)c3cccc(Cl)c3)cc2)cc1
4. COC(=O)c1c(NC(=O)c2ccc([N+](=O)[O-])o2)sc2c1CCN(C(C)C)C2
5. CN1CCN(CCNC(=O)c2ccc3nc(-c4ccc(F)cc4)c(-c4ccc(F)cc4)nc3c2)CC1

[-0.42, 0.73, 0.80, 1.28, 1.29]

###

Record form. Attribute: pIC50. Fill in for each entry.
Tested on: PEG-3
Experiment: Peg3 promoter luciferase inhibitors, potency, dose response, cell-based, HeLa, CREF/GAPDH counter-screen panel (AID 624167)
Conditions: HeLa PEG-Prom luciferase reporter, overnight, CREF/GAPDH counter-screens, run 1, dose range 1, individual replicate IC50 per panel
One number for each entry, as −log10 of the molar value.

Examples with answers:
COMPOUND: O=C(/C=C/c1ccccc1)Nc1cccc(C(=O)O)c1
pIC50: 5.75
//
COMPOUND: CC[n+]1c(-c2ccccc2)c2cc(N)ccc2c2ccc(N)cc21
pIC50: 5.11
//
COMPOUND: O=C1c2ccccc2S(=O)(=O)N1Cc1nc2ccccc2s1
pIC50: 5.08

Return reported pIC50 values for all items listed beneath this line.
1. C=CCn1c(COc2ccccc2)nnc1SC(C)C(=O)N/N=C/c1cc(Cl)ccc1O (stereo not given)
2. Cc1nc(N2CCN(c3ccccn3)CC2)c2c(C)c(C(=O)Nc3ccccc3F)sc2n1

[5.29, 5.00]

###

Target: PEG-3 (UniProt Q6IN02)
Sequence (Q6IN02 whole entry, looked up): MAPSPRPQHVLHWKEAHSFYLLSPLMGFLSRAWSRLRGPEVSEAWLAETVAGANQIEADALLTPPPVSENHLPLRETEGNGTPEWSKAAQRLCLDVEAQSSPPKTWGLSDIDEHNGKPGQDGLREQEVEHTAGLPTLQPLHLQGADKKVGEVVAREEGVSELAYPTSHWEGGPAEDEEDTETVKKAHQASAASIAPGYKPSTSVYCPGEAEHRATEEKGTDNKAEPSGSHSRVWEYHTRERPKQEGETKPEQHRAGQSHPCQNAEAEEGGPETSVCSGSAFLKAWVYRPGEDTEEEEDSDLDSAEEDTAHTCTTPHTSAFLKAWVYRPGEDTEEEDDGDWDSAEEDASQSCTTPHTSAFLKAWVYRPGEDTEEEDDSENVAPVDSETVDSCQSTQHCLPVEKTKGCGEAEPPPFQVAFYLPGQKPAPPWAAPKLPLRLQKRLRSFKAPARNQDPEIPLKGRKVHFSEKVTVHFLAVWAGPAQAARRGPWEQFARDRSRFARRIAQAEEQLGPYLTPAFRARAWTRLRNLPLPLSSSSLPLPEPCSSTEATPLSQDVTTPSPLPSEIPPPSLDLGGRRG
Assay: Peg3 promoter luciferase inhibitors, potency, dose response, cell-based, HeLa, CREF/GAPDH counter-screen panel (AID 624167)
Conditions: HeLa PEG-Prom luciferase reporter, overnight, CREF/GAPDH counter-screens, mean of runs
Activity calls are given as the source filed them.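 Rule for the calls: active = mean IC50 for reducing PEG3 promoter reporter signal at or below a set limit, with IC50 above the limit in both counter screens; inactive = the rest, including counter screen hits.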
Reply using exactly one outcome from 1 (yes) = active, 0 (no) = inactive

COMPOUND: COc1ccc(CN2CCN(C(=O)c3cc(-c4cccnc4)nc4ccc(Cl)cc34)CC2)c(OC)c1OC
SYSTEM_NAME: PEG-3 (UniProt Q6IN02)
ANSWER_LABEL: 0 (no)

Identify the outcome logged in this assay for the compound shown: O=C(CCn1cnc(-c2ccccc2)c1-c1ccccc1)N/N=C/c1ccccc1O
1 (yes)

Hi team, can someone confirm the assay call for O=C(Nc1ccccc1N1CCOCC1)c1cc(-c2ccncc2)nc2ccccc12 ?
0 (no)

Status in this test for CCn1cc(CN2CCC(C(=O)Nc3cccc(-c4cccc(Cl)c4)c3)CC2)c(C)n1 ?
1 (yes)

For this compound, state the assay outcome: COc1cccc(Nc2nc(C(N)C3CCCCC3)cs2)n1 (stereo not given)
0 (no)
